These records show pKi for Carbonic anhydrase 12 (Homo sapiens, UniProt O43570).
Give bare numbers, as −log10 of the molar value.

• CN(C)c1ccc(/C=N\CCc2ccc(S(N)(=O)=O)cc2)cc1 = 5.51

# context switch: different compound, same pKi
// CCN[C@H]1C[C@H](C)S(=O)(=O)c2sc(S(N)(=O)=O)cc21 [DORZOLAMIDE] : pKi value = 8.52

###

Consider the following compounds; for each one, report its remaining at 24 h.
method: Chemical stability of the compound in HEPES buffer assessed as compound remaining at 10 mg at pH 7.4 measured at 24 hrs by HPLC method
Assay type: physicochemical
experimental setup: read-out: Stability
Give bare numbers, in %.

* COc1ccc(CNCCc2ccc(S(N)(=O)=O)cc2)cc1 | 100

Hi! Can you tell me remaining at 24 h for each of these compounds?
1. NS(=O)(=O)c1ccc(CCNCc2ccccc2)cc1
2. COc1ccc(/C=N\CCc2ccc(S(N)(=O)=O)cc2)cc1
3. NS(=O)(=O)c1ccc(CC/N=C\c2ccccc2)cc1

100
8
14
